# protocol_details: Determination of absolute bioavailability (restricted PK profile, oral and intravenous)
# Assay type: in vivo
# condition_description: male, Sprague-Dawley, rat, plasma, po, 10 mg/kg, absolute bioavailability (F), male Sprague Dawley rats, oral 10 mg/kg AUC(0-6 h) vs intravenous 3 mg/kg AUC(0-3 h); read-out: Bioavailability
This listing pairs molecules with measured bioavailability.

- molecule: "CN1C(=O)N(c2ccc(C#N)c(C(F)(F)F)c2)C(=O)C1(CO)c1ccccc1 (stereo not shown)"
  bioavailability: "50 to 90%"
- molecule: "CN1C(=O)N(c2ccc(C#N)c(C(F)(F)F)c2)C(=O)C1(CO)c1ccc(Cl)cc1 (stereo not shown)"
  bioavailability: "> 90%"
- molecule: "CCC(O)C1(c2ccccc2)C(=O)N(c2ccc(C#N)c(C(F)(F)F)c2)C(=O)N1C (single isomer, unassigned)"
  bioavailability: "50 to 90%"
- molecule: "CN1C(=O)N(c2ccc(C#N)c(C(F)(F)F)c2)C(=O)[C@@]1(CO)c1ccccc1"
  bioavailability: "> 90%"
